Molecular target: NTMT1 (Homo sapiens, UniProt Q9BV86)
Construct: made in house
Sequence (Q9BV86 1-223): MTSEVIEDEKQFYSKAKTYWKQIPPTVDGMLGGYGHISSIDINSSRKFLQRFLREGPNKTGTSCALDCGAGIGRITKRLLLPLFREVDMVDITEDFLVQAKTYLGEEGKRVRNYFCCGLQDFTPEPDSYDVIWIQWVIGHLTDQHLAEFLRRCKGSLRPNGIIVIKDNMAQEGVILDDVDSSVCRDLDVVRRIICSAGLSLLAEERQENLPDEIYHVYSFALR
Experiment: SAHH-coupled fluorescence assay of NTMT1 inhibition
Type: biochemical
Conditions: SAHH-coupled fluorescence assay; n = 2, mean ± SD; read-out: IC50
Threshold 900 nM. IC50 below it: 1.0. IC50 at it or above: 0.0.

In [3]: df
Out[3]:
                                   compound  assigned_class
0  NCCCCC(NC(=O)C1CCCN1C(=O)Cc1cccc2ccccc12)C(=O)Nc1cccc(Br)c1 (centres unmarked)             1.0
1  NCCCC[C@H](NC(=O)[C@@H]1CCCN1C(=O)Cc1cccc2ccccc12)C(=O)NCc1cccc(Br)c1             1.0
2  NCCCCC(NC(=O)C1CCCN1C(=O)Cc1cccc2ccccc12)C(=O)Nc1ccccc1C(N)=O (centres unmarked) [DC541, reference compound]             1.0
3  CN(CCc1ccccc1)C(=O)C(CCCCN)NC(=O)C1CCCN1C(=O)Cc1cccc2ccccc12 (centres unmarked)             0.0
4  NCCCCC(NC(=O)C1CCCN1C(=O)Cc1cccc2ccccc12)C(=O)NCC1CCCCC1 (centres unmarked)             0.0

Bench note: check whether NCCCCC(NC(=O)C1CCCN1C(=O)Cc1cccc2ccccc12)C(=O)Nc1ccc(Br)cc1 (centres unmarked) shows IC50 below 900 nM 1.0

Field: below-cutoff. Rule: recorded IC50 strictly less than 900 nM. Subject: `NCCCC[C@H](NC(=O)[C@@H]1CCCN1C(=O)Cc1cccc2ccccc12)C(=O)NCc1ccc(Br)cc1` 1.0

---

Target: NTMT1 (Homo sapiens, UniProt Q9BV86)
Construct: made in house
Test: SAHH-coupled fluorescence assay of NTMT1 inhibition
Assay type: biochemical
Details: estimated from the IC50 values in Table 1
Measured Expt. ΔGbind ± σ accompanies every entry in the list below.
The answer is to be given in kcal/mol; state only the numeric part.

In [3]: df
Out[3]:
                                   compound  observed_result
0  NCCCCC(NC(=O)C1CCCN1C(=O)Cc1cccc2ccccc12)C(=O)NCCCc1ccccc1 (stereo not shown) [Compound 1e]            -8.44
1  NCCCC[C@H](NC(=O)[C@@H]1CCCN1C(=O)Cc1cccc2ccccc12)C(=O)NCc1ccc(Br)cc1 [Compound 1h]            -8.30
2  NCCCCC(NC(=O)C1CCCN1C(=O)Cc1cccc2ccccc12)C(=O)Nc1ccccc1C(N)=O (stereo not shown) [DC541, reference compound]            -8.82

For the next question, use this compound.
GET /values?readout=Expt. ΔGbind ± σ&system=NTMT1 (Homo sapiens, UniProt Q9BV86)&item= NCCCC[C@H](NC(=O)[C@@H]1CCCN1C(=O)Cc1cccc2ccccc12)C(=O)NCc1cccc(Br)c1 [Compound 1g] -8.51
